protocol summary: Rat CLint
Type: in vitro ADME
parameter measured: CLint scaled (mL/min/kg)

[[record]]
chemical_structure = "Cc1nc(C)c2c(n1)sc1c(NCc3ccc(C(C)(C)O)cc3)ncnc12"
result_unit = "mL/min/kg"
observed_result = 78


###

protocol summary: Rat brain:plasma distribution
Type: in vivo
parameter measured: Kp

[[record]]
molecule = "Cc1nc(C)c2c(n1)sc1c(NCc3ccc(C(C)(C)O)cc3)ncnc12 [Compound 1]"
parameter_measured = "Kp"
observed_result = 0.74


###

assayed target: Human M4 (Homo sapiens, UniProt P08173)
Construct: expressed in transfected cells
Sequence (P08173 whole entry): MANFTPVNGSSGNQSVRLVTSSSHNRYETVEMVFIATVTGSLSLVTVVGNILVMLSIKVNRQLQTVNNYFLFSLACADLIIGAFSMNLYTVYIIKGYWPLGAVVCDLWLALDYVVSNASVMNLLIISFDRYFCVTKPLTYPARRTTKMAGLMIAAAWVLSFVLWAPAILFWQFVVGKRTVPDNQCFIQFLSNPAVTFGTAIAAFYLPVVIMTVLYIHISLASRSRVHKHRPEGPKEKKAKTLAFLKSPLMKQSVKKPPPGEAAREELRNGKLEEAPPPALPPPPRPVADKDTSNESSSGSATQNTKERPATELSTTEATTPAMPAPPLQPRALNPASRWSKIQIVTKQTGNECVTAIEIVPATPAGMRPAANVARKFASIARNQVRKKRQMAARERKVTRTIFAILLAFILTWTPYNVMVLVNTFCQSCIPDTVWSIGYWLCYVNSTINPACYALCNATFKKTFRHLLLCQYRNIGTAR
protocol summary: mAChR M4 cell-based functional assay (calcium flux, potentiation of EC20 acetylcholine response)
condition: % ACh maximum at 30 μM; human M4
Where Emax at 30 µM equals or exceeds 80%, the correct label is 1.0; where it does not, the label is 0.0.

[[record]]
chemical_structure = "COc1ccc(CNc2ncnc3c2sc2nc(C)nc(C)c23)cc1F"
group = 0.0

[[record]]
chemical_structure = "Cc1nc(C)c2c(n1)sc1c(NCc3ccc(C(C)(C)O)cc3)ncc(Cl)c12"
group = 1.0

[[record]]
chemical_structure = "Cc1nc(C)c2c(n1)sc1c(N3CCC(F)(F)C3)nccc12"
group = 1.0

[[record]]
chemical_structure = "Cc1nc(C)c2c(n1)sc1c(NC3CCC3)ncc(Cl)c12"
group = 0.0

[[record]]
chemical_structure = "Cc1nc(C)c2c(n1)sc1c(N3CCCC3)nccc12"
group = 0.0

[[record]]
chemical_structure = "Cc1nc(C)c2c(n1)sc1c(N3CC4(COC4)C3)ncnc12"
group = 0.0

[[record]]
chemical_structure = "Cc1nc(C2CC2)nc2sc3c(NCc4ccc(C(C)(C)O)cc4)nccc3c12"
group = 1.0

[[record]]
chemical_structure = "Cc1nc(C2CC2)nc2sc3c(N4CCCCC4)nccc3c12"
group = 0.0

